System: 354836-022-R-J1-PDC multicell spheroid viability
Experiment: Anticancer human tumor 354836-022-R-J1-PDC patient-derived head and neck squamous cell carcinoma cell line growth inhibition [PI3K]; active = viability on the fitted dose curve at most 10% of control; inactive = the rest
Details: second compound 0.0316 µM; first compound 3.16 µM
Description: Combinatorial screen of targeted agents with the PI3K inhibitors inavolisib, alpelisib, duvelisib, and copanlisib in multi-cell type tumor spheroids A high-throughput screen of multi-cell type tumor spheroids was designed to identify active combinations of targeted small molecules and PI3K pathway inhibitors. […] Compounds. […] If the clinical Cmax for an agent had not been determined, the highest concentration tested was 10 microM. […]
Select the matching outcome among Y (active), N (inactive)

Short answer needed: outcome of this test for CC1(C)CCC(CN2CCN(c3ccc(C(=O)NS(=O)(=O)c4ccc(NCC5CCOCC5)c([N+](=O)[O-])c4)c(Oc4cnc5[nH]ccc5c4)c3)CC2)=C(c2ccc(Cl)cc2)C1 + Cc1nc(NC(=O)N2CCCC2C(N)=O)sc1-c1ccnc(C(C)(C)C(F)(F)F)c1 ? N

Short answer needed: outcome of this test for Cn1ncc(Cl)c1-c1cc(C(=O)NC(CN)Cc2cccc(F)c2)sc1Cl (stereo not given) + COc1c(OCCCN2CCOCC2)ccc2c3n(c(=NC(=O)c4cnc(N)nc4)nc12)CCN3 ? Y

Short answer needed: outcome of this test for Cn1nccc1Nc1nccc(-c2ccn(C(CO)c3ccc(Cl)c(F)c3)c(=O)c2)n1 (stereo not given) + COc1c(OCCCN2CCOCC2)ccc2c3n(c(=NC(=O)c4cnc(N)nc4)nc12)CCN3 ? N

Short answer needed: outcome of this test for CC1(C)CCC(Nc2ncc(C(F)(F)F)c(-c3c[nH]c4c(P(C)(C)=O)c(C#N)ccc34)n2)CN1 (stereo not given) + COc1c(OCCCN2CCOCC2)ccc2c3n(c(=NC(=O)c4cnc(N)nc4)nc12)CCN3 ? Y

Short answer needed: outcome of this test for C#Cc1c(F)ccc2cc(O)cc(-c3ncc4c(N5CC6CCC(C5)N6)nc(OCC56CCCN5CC(F)C6)nc4c3F)c12 (stereo not given) + CC(Nc1ncnc2nc[nH]c12)c1cc2cccc(Cl)c2c(=O)n1-c1ccccc1 ? N

Short answer needed: outcome of this test for CC(Cn1ccc(-c2ccc(C#N)c(Cl)c2)n1)NC(=O)c1cc(C(C)O)[nH]n1 (stereo not given) + CC(Nc1ccc2c(c1)OCCn1cc(N3C(=O)OCC3C(F)F)nc1-2)C(N)=O ? N

Short answer needed: outcome of this test for Cn1nccc1Nc1nccc(-c2ccn(C(CO)c3ccc(Cl)c(F)c3)c(=O)c2)n1 (stereo not given) + CC(Nc1ccc2c(c1)OCCn1cc(N3C(=O)OCC3C(F)F)nc1-2)C(N)=O ? N

Short answer needed: outcome of this test for CNC(=O)c1ccc(N2C(=S)N(c3ccc(C#N)c(C(F)(F)F)c3)C(=O)C2(C)C)cc1F + Cc1nc(NC(=O)N2CCCC2C(N)=O)sc1-c1ccnc(C(C)(C)C(F)(F)F)c1 ? N

Short answer needed: outcome of this test for CNC(=O)c1ccc(N2C(=S)N(c3ccc(C#N)c(C(F)(F)F)c3)C(=O)C2(C)C)cc1F + COc1c(OCCCN2CCOCC2)ccc2c3n(c(=NC(=O)c4cnc(N)nc4)nc12)CCN3 ? N

Short answer needed: outcome of this test for C#Cc1c(F)ccc2cc(O)cc(-c3ncc4c(N5CC6CCC(C5)N6)nc(OCC56CCCN5CC(F)C6)nc4c3F)c12 (stereo not given) + COc1c(OCCCN2CCOCC2)ccc2c3n(c(=NC(=O)c4cnc(N)nc4)nc12)CCN3 ? N

###

Test system: 354836-022-R-J1-PDC multicell spheroid viability
Test: Anticancer human tumor 354836-022-R-J1-PDC cell line growth inhibition [PI3K];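 also: spheroids exposed to agents for seven days before the viability read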
Details: second compound 0.0316 µM; first compound 3 µM; stronger effect = lower value
metricName: viability, T/C

What value of viability, T/C has been recorded for this entry: Cn1cnc2c(F)c(Nc3ccc(Br)cc3Cl)c(C(=O)NOCCO)cc21 + CC(Nc1ccc2c(c1)OCCn1cc(N3C(=O)OCC3C(F)F)nc1-2)C(N)=O 65.1%

What value of viability, T/C has been recorded for this entry: Cn1cnc2c(F)c(Nc3ccc(Br)cc3Cl)c(C(=O)NOCCO)cc21 + COc1c(OCCCN2CCOCC2)ccc2c3n(c(=NC(=O)c4cnc(N)nc4)nc12)CCN3 41%

What value of viability, T/C has been recorded for this entry: Cn1cnc2c(F)c(Nc3ccc(Br)cc3Cl)c(C(=O)NOCCO)cc21 + Cc1nc(NC(=O)N2CCCC2C(N)=O)sc1-c1ccnc(C(C)(C)C(F)(F)F)c1 54.3%

What value of viability, T/C has been recorded for this entry: Cn1cnc2c(F)c(Nc3ccc(Br)cc3Cl)c(C(=O)NOCCO)cc21 + CC(Nc1ncnc2nc[nH]c12)c1cc2cccc(Cl)c2c(=O)n1-c1ccccc1 49.4%

###

Tested on: 354836-022-R-J1-PDC multicell spheroid viability
Experiment: Anticancer human tumor 354836-022-R-J1-PDC cell line growth inhibition [PI3K];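 also: spheroids exposed to agents for seven days before the viability read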
Conditions: second compound 0.0316 µM; first compound 0.00316 µM; stronger effect = lower value
Source text: Combinatorial screen of targeted agents with the PI3K inhibitors inavolisib, alpelisib, duvelisib, and copanlisib in multi-cell type tumor spheroids A high-throughput screen of multi-cell type tumor spheroids was designed to identify active combinations of targeted small molecules and PI3K pathway inhibitors. […] Compounds. […] If the clinical Cmax for an agent had not been determined, the highest concentration tested was 10 microM. […]
Would you kindly list viability, T/C for each of these molecules?
Give the number; % is assumed, so skip it.

What value of viability, T/C has been recorded for this entry: CC(C)n1nc(-c2ccc3oc(N)nc3c2)c2c(N)ncnc21 + CC(Nc1ncnc2nc[nH]c12)c1cc2cccc(Cl)c2c(=O)n1-c1ccccc1 79.9

What value of viability, T/C has been recorded for this entry: CC(=O)c1c(C)c2cnc(Nc3ccc(N4CCNCC4)cn3)nc2n(C2CCCC2)c1=O + COc1c(OCCCN2CCOCC2)ccc2c3n(c(=NC(=O)c4cnc(N)nc4)nc12)CCN3 81.3

What value of viability, T/C has been recorded for this entry: Cn1ncnc1[C@H]1c2n[nH]c(=O)c3cc(F)cc(c23)N[C@@H]1c1ccc(F)cc1 + COc1c(OCCCN2CCOCC2)ccc2c3n(c(=NC(=O)c4cnc(N)nc4)nc12)CCN3 88

What value of viability, T/C has been recorded for this entry: Cn1ncnc1[C@H]1c2n[nH]c(=O)c3cc(F)cc(c23)N[C@@H]1c1ccc(F)cc1 + Cc1nc(NC(=O)N2CCCC2C(N)=O)sc1-c1ccnc(C(C)(C)C(F)(F)F)c1 107

What value of viability, T/C has been recorded for this entry: CCN1CCN(Cc2ccc(Nc3ncc(F)c(-c4cc(F)c5nc(C)n(C(C)C)c5c4)n3)nc2)CC1 + Cc1nc(NC(=O)N2CCCC2C(N)=O)sc1-c1ccnc(C(C)(C)C(F)(F)F)c1 107

What value of viability, T/C has been recorded for this entry: CC(C)n1nc(-c2ccc3oc(N)nc3c2)c2c(N)ncnc21 + COc1c(OCCCN2CCOCC2)ccc2c3n(c(=NC(=O)c4cnc(N)nc4)nc12)CCN3 61.7

What value of viability, T/C has been recorded for this entry: CC(C)n1nc(-c2ccc3oc(N)nc3c2)c2c(N)ncnc21 + CC(Nc1ccc2c(c1)OCCn1cc(N3C(=O)OCC3C(F)F)nc1-2)C(N)=O 59.2

What value of viability, T/C has been recorded for this entry: Cn1ncnc1[C@H]1c2n[nH]c(=O)c3cc(F)cc(c23)N[C@@H]1c1ccc(F)cc1 + CC(Nc1ncnc2nc[nH]c12)c1cc2cccc(Cl)c2c(=O)n1-c1ccccc1 85.4

What value of viability, T/C has been recorded for this entry: CCN1CCN(Cc2ccc(Nc3ncc(F)c(-c4cc(F)c5nc(C)n(C(C)C)c5c4)n3)nc2)CC1 + COc1c(OCCCN2CCOCC2)ccc2c3n(c(=NC(=O)c4cnc(N)nc4)nc12)CCN3 78.5

What value of viability, T/C has been recorded for this entry: Cn1ncnc1[C@H]1c2n[nH]c(=O)c3cc(F)cc(c23)N[C@@H]1c1ccc(F)cc1 + CC(Nc1ccc2c(c1)OCCn1cc(N3C(=O)OCC3C(F)F)nc1-2)C(N)=O 95

What value of viability, T/C has been recorded for this entry: CC(=O)c1c(C)c2cnc(Nc3ccc(N4CCNCC4)cn3)nc2n(C2CCCC2)c1=O + CC(Nc1ccc2c(c1)OCCn1cc(N3C(=O)OCC3C(F)F)nc1-2)C(N)=O 92.2

What value of viability, T/C has been recorded for this entry: CC(C)n1nc(-c2ccc3oc(N)nc3c2)c2c(N)ncnc21 + Cc1nc(NC(=O)N2CCCC2C(N)=O)sc1-c1ccnc(C(C)(C)C(F)(F)F)c1 88.7

What value of viability, T/C has been recorded for this entry: CC(=O)c1c(C)c2cnc(Nc3ccc(N4CCNCC4)cn3)nc2n(C2CCCC2)c1=O + Cc1nc(NC(=O)N2CCCC2C(N)=O)sc1-c1ccnc(C(C)(C)C(F)(F)F)c1 105

What value of viability, T/C has been recorded for this entry: CCN1CCN(Cc2ccc(Nc3ncc(F)c(-c4cc(F)c5nc(C)n(C(C)C)c5c4)n3)nc2)CC1 + CC(Nc1ncnc2nc[nH]c12)c1cc2cccc(Cl)c2c(=O)n1-c1ccccc1 109

What value of viability, T/C has been recorded for this entry: CC(=O)c1c(C)c2cnc(Nc3ccc(N4CCNCC4)cn3)nc2n(C2CCCC2)c1=O + CC(Nc1ncnc2nc[nH]c12)c1cc2cccc(Cl)c2c(=O)n1-c1ccccc1 108

What value of viability, T/C has been recorded for this entry: CCN1CCN(Cc2ccc(Nc3ncc(F)c(-c4cc(F)c5nc(C)n(C(C)C)c5c4)n3)nc2)CC1 + CC(Nc1ccc2c(c1)OCCn1cc(N3C(=O)OCC3C(F)F)nc1-2)C(N)=O 95.8
